Examples of compounds with documented HDAC6 activity raw data (signal) follow.
- Target desc: HDAC6 (Homo sapiens)
- Construct: purchased Reaction Biology Corporation (assay run by the CRO)
- Sequence (Q9UBN7 whole entry): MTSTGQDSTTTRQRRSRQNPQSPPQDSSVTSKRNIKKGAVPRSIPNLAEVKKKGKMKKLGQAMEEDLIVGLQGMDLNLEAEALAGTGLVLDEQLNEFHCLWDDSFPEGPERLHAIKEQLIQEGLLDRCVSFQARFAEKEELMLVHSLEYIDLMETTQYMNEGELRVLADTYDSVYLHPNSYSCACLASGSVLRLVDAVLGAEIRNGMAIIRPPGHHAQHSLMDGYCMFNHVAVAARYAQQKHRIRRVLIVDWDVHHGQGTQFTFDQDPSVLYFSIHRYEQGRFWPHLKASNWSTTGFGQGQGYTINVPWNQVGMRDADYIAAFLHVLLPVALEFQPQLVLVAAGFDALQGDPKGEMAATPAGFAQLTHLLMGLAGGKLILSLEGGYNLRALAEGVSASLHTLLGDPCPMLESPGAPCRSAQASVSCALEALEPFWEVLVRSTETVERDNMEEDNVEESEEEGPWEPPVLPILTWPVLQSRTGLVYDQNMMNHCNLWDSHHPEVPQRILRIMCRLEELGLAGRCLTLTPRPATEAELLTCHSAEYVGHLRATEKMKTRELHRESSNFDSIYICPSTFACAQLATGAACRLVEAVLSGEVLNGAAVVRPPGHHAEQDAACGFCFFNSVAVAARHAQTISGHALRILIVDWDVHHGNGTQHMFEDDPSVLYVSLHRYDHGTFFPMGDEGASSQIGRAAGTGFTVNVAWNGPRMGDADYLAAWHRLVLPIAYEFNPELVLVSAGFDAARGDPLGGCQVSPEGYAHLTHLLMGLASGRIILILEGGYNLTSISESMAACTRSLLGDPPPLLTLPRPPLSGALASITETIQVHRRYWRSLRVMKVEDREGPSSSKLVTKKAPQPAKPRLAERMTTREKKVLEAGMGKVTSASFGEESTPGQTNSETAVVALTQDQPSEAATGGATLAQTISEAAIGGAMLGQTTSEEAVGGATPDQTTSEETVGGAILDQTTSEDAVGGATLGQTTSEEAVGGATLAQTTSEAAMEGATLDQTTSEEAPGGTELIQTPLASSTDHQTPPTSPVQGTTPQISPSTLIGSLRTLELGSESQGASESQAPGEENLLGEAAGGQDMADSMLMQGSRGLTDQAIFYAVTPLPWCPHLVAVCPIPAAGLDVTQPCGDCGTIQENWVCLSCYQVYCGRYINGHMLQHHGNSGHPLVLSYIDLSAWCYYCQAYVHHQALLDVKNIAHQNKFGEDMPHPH
- Assay explanation: HDAC6 inhibition, full IC50 measurement (Reaction Biology; fluorogenic p53 peptide RHKK(Ac)AMC)
- Format: biochemical
- Condition details: Conc. 1.23E-07 M, t1
Peptide text beside a SMILES is read from it.
Endpoint label: HDAC6 activity raw data (signal)

1) CCCC[C@H]1NC(=O)[C@H](CC(=O)O)NC(=O)[C@@H](CO)NC(=O)[C@@H](C)NC(=O)[C@H](CCCCN)NC(=O)[C@@H](CCCCN)NC(=O)[C@H](Cc2ccccc2)NC(=O)[C@H](CCCCCS)NC1=O [des4.3.1.2, SHA-Phe-dLys-Lys-dAla-dSer-Asp-dNle] (HELM PEPTIDE1{D.[CCCC[C@@H](N[*:1])C(=O)[*:2]].[O=C([C@H](CCCCCS)N[*:1])[*:2]].F.[dK].K.[dA].[dS]}$PEPTIDE1,PEPTIDE1,1:R1-8:R2$$$V2.0) ... 1593999
2) CSCC[C@H]1NC(=O)[C@@H](CO)NC(=O)[C@H](CC(N)=O)NC(=O)[C@H](CC(=O)O)NC(=O)[C@@H]([C@H](C)O)NC(=O)[C@H](Cc2c[nH]c3ccccc23)NC(=O)[C@H](CCCCCS)NC(=O)[C@H](CCCCN)NC(=O)[C@@H](CC(=O)O)NC1=O [des2.1.1, SHA-Trp-dThr-Asp-Asn-dSer-dMet-dAsp-Lys] (HELM PEPTIDE1{D.N.[dS].[dM].[dD].K.[O=C([C@H](CCCCCS)N[*:1])[*:2]].W.[dT]}$PEPTIDE1,PEPTIDE1,1:R1-9:R2$$$V2.0) ... 59972
3) NCCCC[C@@H]1NC(=O)[C@@H]2C[C@@H](O)CN2C(=O)[C@H](CC(N)=O)NC(=O)[C@H](CCCCCS)NC(=O)CNC(=O)[C@H](Cc2c[nH]c3ccccc23)NC(=O)[C@@H](CCCCN)NC(=O)[C@H](CCC(N)=O)NC1=O [des1.1.2, SHA-Asn-Hpr-Lys-Gln-dLys-Trp-Gly] (HELM PEPTIDE1{G.[O=C([C@H](CCCCCS)N[*:1])[*:2]].N.[Hyp].K.Q.[dK].W}$PEPTIDE1,PEPTIDE1,1:R1-8:R2$$$V2.0) ... 150676
4) NCCCC[C@@H]1NC(=O)[C@@H]2CCCN2C(=O)[C@H](CC(N)=O)NC(=O)[C@H](CCCCCS)NC(=O)CNC(=O)[C@H](Cc2c[nH]c3ccccc23)NC(=O)[C@@H](CCCCN)NC(=O)[C@H](CCC(N)=O)NC1=O [des1.1.0, SHA-Asn-Pro-Lys-Gln-dLys-Trp-Gly] (HELM PEPTIDE1{G.[O=C([C@H](CCCCCS)N[*:1])[*:2]].N.P.K.Q.[dK].W}$PEPTIDE1,PEPTIDE1,1:R1-8:R2$$$V2.0) ... 128420
5) C[C@H](O)[C@H]1NC(=O)[C@H](Cc2c[nH]c3ccccc23)NC(=O)[C@H](CCCCCS)NC(=O)[C@H](CCCCN)NC(=O)[C@@H](CC(=O)O)NC(=O)[C@@H](CCCCN)NC(=O)[C@@H](CO)NC(=O)[C@H](CC(N)=O)NC(=O)[C@H](CC(=O)O)NC1=O [des2.1.0, SHA-Trp-dThr-Asp-Asn-dSer-dLys-dAsp-Lys] (HELM PEPTIDE1{D.N.[dS].[dK].[dD].K.[O=C([C@H](CCCCCS)N[*:1])[*:2]].W.[dT]}$PEPTIDE1,PEPTIDE1,1:R1-9:R2$$$V2.0) ... 158713
